Biological target: Integrin alpha-V/beta-3 (Homo sapiens, UniProt P05106+P06756)
Sequence (P05106 27-788 limits assumed): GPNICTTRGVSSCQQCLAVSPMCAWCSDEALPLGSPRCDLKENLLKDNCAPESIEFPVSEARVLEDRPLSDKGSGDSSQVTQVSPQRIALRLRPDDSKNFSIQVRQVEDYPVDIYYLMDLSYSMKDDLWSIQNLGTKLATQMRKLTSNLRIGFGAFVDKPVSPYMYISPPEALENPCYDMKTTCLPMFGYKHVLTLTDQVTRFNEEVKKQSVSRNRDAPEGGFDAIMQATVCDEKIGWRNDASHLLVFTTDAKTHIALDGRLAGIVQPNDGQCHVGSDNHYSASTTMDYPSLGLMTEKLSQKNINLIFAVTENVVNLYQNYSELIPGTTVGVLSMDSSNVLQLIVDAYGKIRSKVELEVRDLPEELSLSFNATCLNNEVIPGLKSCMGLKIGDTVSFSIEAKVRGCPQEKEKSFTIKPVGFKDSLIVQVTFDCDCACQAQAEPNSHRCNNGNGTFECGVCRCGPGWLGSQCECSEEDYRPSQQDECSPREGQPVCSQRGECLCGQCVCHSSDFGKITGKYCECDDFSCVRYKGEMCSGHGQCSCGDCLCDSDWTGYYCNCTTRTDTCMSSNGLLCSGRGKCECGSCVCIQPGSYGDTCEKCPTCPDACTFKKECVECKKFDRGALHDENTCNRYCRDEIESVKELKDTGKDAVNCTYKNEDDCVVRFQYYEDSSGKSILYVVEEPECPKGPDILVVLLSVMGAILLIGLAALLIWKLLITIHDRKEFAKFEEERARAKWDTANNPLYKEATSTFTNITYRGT
Sequence (P06756 31-889 limits assumed): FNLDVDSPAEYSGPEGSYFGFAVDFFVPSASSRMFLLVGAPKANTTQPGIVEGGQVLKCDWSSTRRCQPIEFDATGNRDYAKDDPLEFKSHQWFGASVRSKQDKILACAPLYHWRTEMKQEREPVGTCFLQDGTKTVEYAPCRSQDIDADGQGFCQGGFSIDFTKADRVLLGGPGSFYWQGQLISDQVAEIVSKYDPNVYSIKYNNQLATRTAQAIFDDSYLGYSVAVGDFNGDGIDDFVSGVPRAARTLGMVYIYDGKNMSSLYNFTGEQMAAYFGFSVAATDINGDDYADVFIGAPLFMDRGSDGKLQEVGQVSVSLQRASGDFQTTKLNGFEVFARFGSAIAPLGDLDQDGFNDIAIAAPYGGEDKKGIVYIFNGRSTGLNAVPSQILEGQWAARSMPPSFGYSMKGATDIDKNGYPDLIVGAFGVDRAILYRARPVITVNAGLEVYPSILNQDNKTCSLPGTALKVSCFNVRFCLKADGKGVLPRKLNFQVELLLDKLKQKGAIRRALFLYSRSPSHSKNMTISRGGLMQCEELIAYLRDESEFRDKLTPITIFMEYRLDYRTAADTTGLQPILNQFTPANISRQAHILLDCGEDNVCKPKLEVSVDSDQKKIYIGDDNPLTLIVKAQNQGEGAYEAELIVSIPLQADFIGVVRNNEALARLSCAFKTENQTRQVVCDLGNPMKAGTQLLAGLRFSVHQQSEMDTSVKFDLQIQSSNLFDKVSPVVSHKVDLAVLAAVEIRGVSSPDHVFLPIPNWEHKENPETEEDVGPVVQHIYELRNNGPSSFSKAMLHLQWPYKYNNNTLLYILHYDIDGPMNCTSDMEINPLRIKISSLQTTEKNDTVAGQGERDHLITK
Sequence (P06756 891-1048 limits assumed): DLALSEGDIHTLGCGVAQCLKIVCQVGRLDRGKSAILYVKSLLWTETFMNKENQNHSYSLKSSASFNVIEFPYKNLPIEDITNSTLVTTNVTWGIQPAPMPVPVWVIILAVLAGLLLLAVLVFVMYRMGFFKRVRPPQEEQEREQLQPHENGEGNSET
Experiment: Binding affinity towards alpha V-beta3 receptor expressed in HEK293 cells
Type: cell-based
pIC50: −log10 of the molar value.
Would you please tag the item Y when its pIC50 is 8 or above, and N when it is below?

| Molecule | Class |
| --- | --- |
| N=C(N)Nc1cccc(C(=O)Nc2ccc(C3CC3C(=O)O)cc2)c1 (stereo unspecified) | N |
| CC(C)(C)NC(=O)NC(Cc1ccc(NC(=O)c2cccc(N=C(N)N)c2)cc1)C(=O)O (stereo unspecified) | Y |
| O=C(O)/C=C/c1ccc(NC(=O)c2cccc(NC3=NCCCN3)c2)cc1Cl | Y |
| CC(C)(C)OC(=O)NC(Cc1ccc(NC(=O)c2cccc(N=C(N)N)c2)cc1)C(=O)O (stereo unspecified) | Y |
| COc1cc(NC(=O)c2cccc(NC(=N)N)c2)ccc1CC(NC(=O)OC(C)C)C(=O)O (stereo unspecified) | Y |
| O=C(Nc1ccc(C2CC2C(=O)O)cc1)c1cccc(NC2=NCCCN2)c1 (stereo unspecified) | N |

###

Molecular target: Integrin alpha-V/beta-3 (Homo sapiens, UniProt P05106+P06756)
Assay: Binding affinity towards alpha V-beta3 receptor expressed in HEK293 cells
Type: cell-based

| Molecule | IC50, nM |
| --- | --- |
| O=C(O)/C=C/c1ccc(NC(=O)c2cccc(NC3=NCCCN3)c2)cc1 | 1.8 |
| COc1cc(NC(=O)c2cccc(NC3=NCCCN3)c2)ccc1OCC(=O)O | 1.7 |
| O=C(O)/C=C/c1ccc(NC(=O)c2cccc(NC3=NCCCN3)c2)c(Cl)c1 | 1.7 |
| Cc1cc(NC(=O)c2cccc(NC(=N)N)c2)ccc1/C=C/C(=O)O | 19.4 |
| CC(C)OC(=O)NC(Cc1ccc(NC(=O)c2cccc(N=C(N)N)c2)cc1)C(=O)O (stereo unspecified) | 2.6 |
| CS(=O)(=O)NC(Cc1ccc(NC(=O)c2cccc(N=C(N)N)c2)cc1)C(=O)O (stereo unspecified) | 0.98 |
| N=C(N)Nc1cccc(C(=O)Nc2ccc(/C=C/C(=O)O)cc2Cl)c1 | 5.9 |
| O=C(Nc1ccc(CC(NS(=O)(=O)c2ccccc2)C(=O)O)cc1)c1cccc(NC2=NCCCN2)c1 (stereo unspecified) | 0.12 |
| COc1cc(NC(=O)c2cccc(NC3=NCCCN3)c2)ccc1CC(NC(=O)OC(C)C)C(=O)O (stereo unspecified) | 0.35 |
| Cc1cc(/C=C/C(=O)O)cc(C)c1NC(=O)c1cccc(NC(=N)N)c1 | 21 |
| N=C(N)Nc1cccc(C(=O)Nc2ccc(OCC(=O)O)cc2)c1 | 11.9 |
| Cc1cc(/C=C/C(=O)O)cc(C)c1NC(=O)c1cccc(NC2=NCCN2)c1 | 3 |
| COc1cc(NC(=O)c2cccc(NC3=NCCCN3)c2)ccc1CCC(=O)O | 5.6 |
| NC(N)=Nc1cccc(C(=O)Nc2ccc(CCC(=O)O)cc2)c1 | 10.9 |
| CC(=O)NC(Cc1ccc(NC(=O)c2cccc(N=C(N)N)c2)cc1)C(=O)O (stereo unspecified) | 2.6 |
| Cc1cc(/C=C/C(=O)O)ccc1NC(=O)c1cccc(NC2=NCCCN2)c1 | 1.7 |
| CC(C)OC(=O)NC(Cc1ccc(NC(=O)c2cccc(NC3=NC(=O)CN3)c2)cc1)C(=O)O (stereo unspecified) | 0.94 |
| N=C(N)Nc1cccc(C(=O)Nc2ccc(CC(NS(=O)(=O)c3ccccc3)C(=O)O)cc2)c1 (stereo unspecified) | 0.2 |
| COc1cc(NC(=O)c2cccc(N=C(N)N)c2)ccc1OCC(=O)O | 4.3 |
| N=C(N)Nc1cccc(C(=O)Nc2ccc(/C=C/C(=O)O)cc2F)c1 | 9.6 |
| N=C(N)Nc1cccc(C(=O)Nc2ccc(/C=C/C(=O)O)cc2)c1 | 13.1 |
